Data origin, for the record: paper PMC13480645

Listed next: entries and their corresponding kon.
Target: SARS-CoV-2 S-2P protein (SARS-CoV-2, ancestral (Wuhan-Hu-1) …, UniProt P0DTC2, stabilised)
Assay: BLI
Settings: both partners purified
Express your answer in M⁻¹ s⁻¹, writing the number without its unit.

Field: example entries. Status: answers known.
eCC65.1-7 (antibody, V domains shown) VH: VQLVQSGAEVKKPGASVKVSCKASGYSFTSQYMHWVRQAPGQGLEWMGIIDPSGGGTSYAQKFRDRVSMTRDTPTSTVYMELRSLRSEDTAVYYCASLWFENPSWRDYWGQGTLVTVSS VL: VMTQSPGTLSLSPGERATLSCRASQTVNKNYLAWYQQKPGQAPRLLIYHASSRATGIPDRFSGSGSGTDFTLTISRLEPEDFAVYYCQQYGASPPLFTFGPGTKLEIK    270000
eCC65.1-9 (antibody, V domains shown) VH: VQLVQSGAEVKKPGASVKVSCKASGYDFTSQYMHWVRQAPGQGLEWMGIIDPEGGGTSYAQKFRDRVSMTRDTPTSTVYMELRSLRSEDTAVYYCASLWFEKPSWRDYWGQGTLVTVSS VL: VMTQSPGTLSLSPGERATLSCRASQTVTSNYLAWYQQKPGQAPRLLIYHASSRATGIPDRFSGSGSGTDFTLTISRLEPEDFAVYYCQQYGSKPPLFTFGPGTKLEIK    306000

In: Name the recorded kon of the binder listed here: eCC65.1-6 (antibody, V domains shown) VH: EVQLVQSGAEVKKPGASVKVSCKASGYTFTSQYMHWVRQAPGQGLEWMGIIDPSGGGTSYAQKFRDRVSMTRDTPTSTVYMELRSLRSEDTAVYYCASLWFENPSWRDYWGQGTLVTVSS VL: VMTQSPGTLSLSPGERATLSCRASQTVNKNYLAWYQQKPGQAPRLLIYHASSRATGIPDRFSGSGSGTDFTLTISRLEPEDFAVYYCQQYGSSPPLFTFGPGTKLEIK
Out: 261000
